Value source: patent US20030124585A1

- ASSAYED_SYSTEM: T1, Marmoset Type II GnRH receptor (marmoset)
- T1 chain: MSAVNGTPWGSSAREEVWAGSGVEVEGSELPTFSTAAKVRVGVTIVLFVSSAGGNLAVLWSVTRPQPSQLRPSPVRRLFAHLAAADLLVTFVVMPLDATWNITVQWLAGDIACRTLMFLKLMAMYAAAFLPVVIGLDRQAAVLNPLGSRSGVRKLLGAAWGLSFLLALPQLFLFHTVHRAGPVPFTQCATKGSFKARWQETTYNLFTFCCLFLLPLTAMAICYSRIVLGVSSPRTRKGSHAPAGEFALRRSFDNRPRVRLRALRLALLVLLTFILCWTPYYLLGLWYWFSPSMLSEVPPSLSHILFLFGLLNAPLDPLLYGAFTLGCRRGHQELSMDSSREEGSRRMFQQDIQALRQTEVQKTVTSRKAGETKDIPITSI
- TEST_PROTOCOL: competition with ^125I-[His^5,D-Tyr^6]GnRH on COS-7 cells expressing marmoset Type II GnRH-R (FIG. 4, n=2)
Ends that are not written are not given here.

# BINDER, IC50 (nM)
rows = [
    ("QHWSHGWYPG (peptide, UniProt O43555 24-33, looked up, ends and bridges not checked, mature; also called GnRH Type II; Type II GnRH) [GnRH II]", 1.3),
]
